CLH values by entry
Test system: Liver microsomes
Assay: Intrinsic clearance in rat liver microsomes
Format: ADME, Microsome
quantityMeasured: CLH (mL/min/g)

structureString	targetEntity	quantityMeasured	obsValue
CCC(CC)[C@@H]1C(=O)N[C@H](C2Cc3ccccc3C2)C(=O)N1[C@@H](C(=O)N(C)C)c1ccc(C)nc1	Liver microsomes	CLH	2
CC[C@H](C)[C@@H]1C(=O)N[C@H](C2Cc3ccccc3C2)C(=O)N1[C@@H](C(=O)N(C)C)c1ccc(C)[n+]([O-])c1	Liver microsomes	CLH	1
CC(C)C[C@@H]1C(=O)N[C@H](C2Cc3ccccc3C2)C(=O)N1[C@@H](C(=O)N(C)C)c1ccc(F)cc1F	Liver microsomes	CLH	2
CC[C@H](C)[C@@H]1C(=O)N[C@H](C2Cc3ccccc3C2)C(=O)N1[C@@H](C(=O)N1CCOCC1)c1ccc(C)nc1	Liver microsomes	CLH	1
CC[C@@H](C)[C@@H]1C(=O)N[C@H](C2Cc3ccccc3C2)C(=O)N1[C@@H](C(=O)N(C)C)c1ccc(C)nc1	Liver microsomes	CLH	1
Cc1ccc([C@H](C(=O)N2CCOCC2)N2C(=O)[C@@H](C3Cc4ccccc4C3)NC(=O)[C@H]2CC(C)(C)C)cn1	Liver microsomes	CLH	1
CCC(CC)[C@@H]1C(=O)N[C@H](C2Cc3ccccc3C2)C(=O)N1[C@@H](C(=O)N1CCOCC1)c1ccc(C)nc1	Liver microsomes	CLH	1
CC[C@H](C)[C@@H]1C(=O)N[C@H](C2Cc3ccccc3C2)C(=O)N1[C@@H](C(=O)NC)c1ccc(C)nc1C	Liver microsomes	CLH	1
CC[C@H](C)[C@@H]1C(=O)N[C@H](C2Cc3ccccc3C2)C(=O)N1[C@@H](C(=O)N(C)C)c1cnc(C)cc1C	Liver microsomes	CLH	1
CCC(CC)[C@@H]1C(=O)N[C@H](C2Cc3ccccc3C2)C(=O)N1[C@@H](C(=O)NC)c1ccc(C)nc1	Liver microsomes	CLH	1
CC[C@@H](C)[C@@H]1C(=O)N[C@H](C2Cc3ccccc3C2)C(=O)N1[C@@H](C(=O)N1CCOCC1)c1ccc(C)nc1	Liver microsomes	CLH	1

Entry source: ChEMBL document CHEMBL2034824
